Listed here are compounds together with their documented viability, T/C.
system: OVCAR-5 complex spheroids, viability; experiment: Anticancer human tumor OVCAR-5 cell line growth inhibition; details: second compound 1 µM; first compound 1 µM; stronger effect = lower value;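 note: spheroids exposed to agents for seven days; 100% = DMSO vehicle control wells viability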
Unit % implied. Number only.

Please review the entries below; each comes with its answer.
COMPOUND	UNIT_STRING	viability, T/C
COc1ccc([C@@H](O)c2cc(-c3ncnc4cc(N5CCOCC5)ccc34)c(F)cc2Cl)nn1 + NC1CC1c1ccc(-c2cccc(O)c2)cc1	%	31.7
O=C(c1cc(Cc2n[nH]c(=O)c3ccccc23)ccc1F)N1CCN(C(=O)C2CC2)CC1 + NC1CCC(NC2CC2c2ccccc2)CC1	%	88
CC(C)c1c(-c2ccccc2)nc2c(C#N)c[nH]n2c1=O + NC1CC1c1ccc(-c2cccc(O)c2)cc1	%	105
O=C(C=Cn1cnc(-c2cc(C(F)(F)F)cc(C(F)(F)F)c2)n1)NNc1cnccn1 + NC1CC1c1ccc(-c2cccc(O)c2)cc1	%	31.7
CC1COCCN1c1cc(C2(S(C)(=N)=O)CC2)nc(-c2ccnc3[nH]ccc23)n1 (stereo not drawn) + NC1CC1c1ccc(-c2cccc(O)c2)cc1	%	44

Find the recorded viability, T/C belonging to CC(C)c1c(-c2ccccc2)nc2c(C#N)c[nH]n2c1=O + NC1CCC(NC2CC2c2ccccc2)CC1 and report it.
113

How about Nc1ncn(C2CC(O)C(CO)O2)c(=O)n1 (stereo not drawn) + NC1CCC(NC2CC2c2ccccc2)CC1 ?
73.7

How about COc1cc(Nc2ncc3c(n2)-c2ccc(Cl)cc2C(c2c(F)cccc2OC)=NC3)ccc1C(=O)O + NC1CC1c1ccc(-c2cccc(O)c2)cc1 ?
40.1

How about COc1cc(Nc2ncc3c(n2)-c2ccc(Cl)cc2C(c2c(F)cccc2OC)=NC3)ccc1C(=O)O + NC1CCC(NC2CC2c2ccccc2)CC1 ?
47.4

How about COc1ccc([C@@H](O)c2cc(-c3ncnc4cc(N5CCOCC5)ccc34)c(F)cc2Cl)nn1 + NC1CCC(NC2CC2c2ccccc2)CC1 ?
60.9

How about CC1(C)CCC(CN2CCN(c3ccc(C(=O)NS(=O)(=O)c4ccc(NCC5CCOCC5)c([N+](=O)[O-])c4)c(Oc4cnc5[nH]ccc5c4)c3)CC2)=C(c2ccc(Cl)cc2)C1 + NC1CC1c1ccc(-c2cccc(O)c2)cc1 ?
105
